Data origin, for the record: patent US9150527B2

experimental.endpoint: IC50 (nM)
Numeric only. Scale: nM

Param readout= IC50; system= CYP3A4 (Homo sapiens (Human)); entry= COc1cc2ccc(C(O)(c3cncs3)C(C)C)cc2cc1OC (stereo not shown) ; returns value.
770
